In this section, each of the molecules is paired with its reported Population Mitochondria Different-Phenotype (%).
test system: HEK-293T; test: Multiplex assay against HEK293T; assay type: toxicity, cell-based; conditions: human, 48 h, 10 µM, compound concentration 10 uM, replicate 1
Quick note: give the figure in %, leave out the unit.

> print(dat)
                                   molecule  endpoint.unit  result
1  Cc1ccc(C(C)(O)c2nc3ccccc3s2)c(C)c1 (stereo not given)              %      28

Q) Can you look up the measured Population Mitochondria Different-Phenotype (%) of COc1cc(C(=O)N(CCCc2ccccc2)Cc2ccc(CC(=O)O)cc2)cc(OC)c1C for me?
A) 29

----------
tested on: HEK-293T; assay: Multiplex assay against HEK293T; assay type: toxicity, cell-based; settings: human, 24 h, 1 µM, compound concentration 1 uM, replicate 2
Criterion: Population Apoptotic (%) meeting or surpassing 40%. Met: condition met. Not met: condition not met.

Below, 8 compounds whose answers are already recorded.
> print(dat)
                                   compound     classification
1  Cl.Clc1ccc2nsnc2c1NC1=NCCN1 [TIZANIDINE HYDROCHLORIDE]      condition met
2  COc1c(C)cc(NC(=O)c2nn(Cc3ccc(F)cc3)c3c2CN(C(=O)c2ccc[nH]2)C[C@]3(C)C(N)=O)cc1C      condition met
3  N[C@@]1(C(=O)O)CO[C@H]2[C@H](C(=O)O)[C@H]21  condition not met
4  CC(C)(C)c1ccc(S(=O)(=O)Nc2ccc(Cl)cc2C(=O)c2cc[n+]([O-])cc2)cc1  condition not met
5  CCCN1CCC[C@@H]2Cc3n[nH]cc3C[C@H]21.Cl [QUINPIROLE HYDROCHLORIDE]  condition not met
6  Cc1ccc(C(C)(O)c2nc3ccccc3s2)c(C)c1 (configuration not stated)  condition not met
7  COc1cc(C(=O)N(CCCc2ccccc2)Cc2ccc(CC(=O)O)cc2)cc(OC)c1C      condition met
8  Oc1c(CN2CCN(c3ccccn3)CC2)cc(Cl)c2cccnc12  condition not met

Q) # bool: Population Apoptotic (%) of C[C@H](NC(=O)c1c(C(F)F)nn(C)c1Oc1cccc(C(F)(F)F)c1)c1ccc(C(=O)O)cc1 >= 40%
A) condition met

Q) # bool: Population Apoptotic (%) of CN(C)c1ccnc2sc3c(=O)n(N4CCCCCC4)cnc3c12 >= 40%
A) condition not met

Q) # bool: Population Apoptotic (%) of COc1ccc2c(c1)C(C(=O)N(Cc1ccc(N(C)C)cc1)c1ccc(C(C)C)cc1)CCC2.Cl (configuration not stated) >= 40%
A) condition met

Q) # bool: Population Apoptotic (%) of N#Cc1c(N)nc(SCc2csc(-c3ccc(Cl)cc3)n2)c(C#N)c1-c1ccc(OCCO)cc1 >= 40%
A) condition not met

----------
tested on: U2OS; assay: Multiplex assay against U2OS; assay type: toxicity, cell-based; conditions: human, 24 h, 1 µM, compound concentration 1 uM, replicate 2
The label is true (1) for Population Pyknosed Nuclei (%) below 9% and false (0) for Population Pyknosed Nuclei (%) equal to or exceeding 9%.

Q) Population Pyknosed Nuclei (%) strictly < 9% for this compound? O=C1COc2nccc(-c3ccccc3F)c2CN1Cc1cc(C(F)(F)F)cc(C(F)(F)F)c1
A) true (1)

Q) Population Pyknosed Nuclei (%) strictly < 9% for this compound? O=C(NCC(=O)N1CC[C@H](N[C@H]2CC[C@@](O)(c3ccc(-c4ncccn4)cn3)CC2)C1)c1cccc(C(F)(F)F)c1
A) true (1)

Q) Population Pyknosed Nuclei (%) strictly < 9% for this compound? Cc1ccc(C(C)(O)c2nc3ccccc3s2)c(C)c1 (centres undefined)
A) true (1)

Q) Population Pyknosed Nuclei (%) strictly < 9% for this compound? C[C@@H]1C[C@H]2[C@@H]3CCC4=CC(=O)C=C[C@]4(C)[C@@]3(F)[C@@H](O)C[C@]2(C)[C@@]1(O)C(=O)CO
A) true (1)

Q) Population Pyknosed Nuclei (%) strictly < 9% for this compound? CNC[C@H](O)c1ccc(O)c(O)c1 [EPINEPHRINE]
A) false (0)

Q) Population Pyknosed Nuclei (%) strictly < 9% for this compound? C[C@H](NC(=O)c1c(C(F)F)nn(C)c1Oc1cccc(C(F)(F)F)c1)c1ccc(C(=O)O)cc1
A) false (0)

Q) Population Pyknosed Nuclei (%) strictly < 9% for this compound? CCOc1c2c(c(OCC)c3ncccc13)CN(c1ccc(CS(=O)(=O)NC(=O)Cc3ccccc3OC)cc1C)C2=O
A) true (1)

Q) Population Pyknosed Nuclei (%) strictly < 9% for this compound? O=S(=O)(c1ccccc1)c1cnc2c(N3CCNCC3)cccc2c1 [INTEPIRDINE]
A) false (0)
